system: adult S. japonicum; assay: microbe, parasite or virus in culture; format: cell-based; conditions: Schistosoma japonicum; adult worms, 25 μM, 48 h; read-out: Killing activity 48hr

COMPOUND	SYSTEM	UOM	killing at 25 µM
N#Cc1c(-c2ccc(CBr)cc2)no[n+]1[O-]	adult S. japonicum	%	100
O=C(C1CCCCC1)N1CC(=O)N2CCc3ccccc3C2C1 (stereo not drawn) [PZQ, praziquantel, reference compound]	adult S. japonicum	%	25
N#Cc1c(-c2ccc(OCc3ccccc3)cc2)no[n+]1[O-]	adult S. japonicum	%	100
Cc1ccc2cccc(OCc3ccc(-c4no[n+]([O-])c4C#N)cc3)c2n1	adult S. japonicum	%	100
N#Cc1c(-c2ccc(OCCBr)cc2)no[n+]1[O-]	adult S. japonicum	%	100
N#Cc1c(-c2ccc(OCCCCBr)cc2)no[n+]1[O-]	adult S. japonicum	%	87.5

* * *

tested on: juvenile S. japonicum; test: microbe, parasite or virus in culture; type: cell-based; conditions: Schistosoma japonicum; juvenile worms, 2 μM, 48 h; read-out: Killing activity 48hr
Ranges used to classify killing at 2 µM: one: < 20%; two: ≥ 20% and < 30%; three: ≥ 30%

COMPOUND	LABEL
C#CCOc1ccc(-c2no[n+]([O-])c2C#N)cc1 [Compound 20]	one
COc1ccc(-c2no[n+]([O-])c2CO)cc1 [Compound 4a]	three
Cc1ccc(-c2no[n+]([O-])c2C#N)cc1 [Compound 7b]	two
N#Cc1c(-c2ccc(OCCBr)cc2)no[n+]1[O-] [Compound 12]	one
N#Cc1c(-c2ccc(OCc3ccccc3)cc2)no[n+]1[O-] [Compound 19]	one
N#Cc1c(-c2ccc(OCCCCBr)cc2)no[n+]1[O-] [Compound 14]	three
N#Cc1c(-c2ccc(OCC(=O)c3ccccc3)cc2)no[n+]1[O-] [Compound 17]	three
Cc1ccc2cccc(OCc3ccc(-c4no[n+]([O-])c4C#N)cc3)c2n1 [Compound 28]	one
N#Cc1c(-c2ccc(OCCCBr)cc2)no[n+]1[O-] [Compound 13]	one
N#Cc1c(-c2ccc(COc3ccc(C=O)cc3)cc2)no[n+]1[O-] [Compound 26]	three
N#Cc1c(-c2ccc(OC/C=C/CBr)cc2)no[n+]1[O-] [Compound 16]	two
Cc1ccc(-c2no[n+]([O-])c2CO)cc1 [Compound 4b]	three

* * *

test: Cytotoxicity assay on Hela cells (MTT); assay type: cell-based; conditions: human
Below, each entry is listed with its recorded viability at 72 h, 80 µM.
MEASURED_QUANTITY: viability at 72 h, 80 µM (%)

COMPOUND	MEASURED_QUANTITY	ENDPOINT_RESULT
O=C(C1CCCCC1)N1CC(=O)N2CCc3ccccc3C2C1 (stereo not shown) [PZQ, praziquantel, reference compound]	viability at 72 h, 80 µM	76
N#Cc1c(-c2ccc(OCCCBr)cc2)no[n+]1[O-]	viability at 72 h, 80 µM	80
C#CCOc1ccc(-c2no[n+]([O-])c2C#N)cc1	viability at 72 h, 80 µM	87
N#Cc1c(-c2ccc(Br)cc2)no[n+]1[O-]	viability at 72 h, 80 µM	66

* * *

tested on: adult S. japonicum; assay: microbe, parasite or virus in culture; format: cell-based; conditions: adult worms, 10 μM, 48 h

STRUCTURE_SMILES	SYSTEM	Killing activity 48hr
N#Cc1c(-c2ccc(OCCBr)cc2)no[n+]1[O-]	adult S. japonicum	sluggish
N#Cc1c(-c2ccc(OCCCOc3ccc(-c4no[n+]([O-])c4C#N)cc3)cc2)no[n+]1[O-]	adult S. japonicum	sluggish
[O-][n+]1onc(-c2ccc(Br)cc2)c1CO	adult S. japonicum	n.e.
N#Cc1c(-c2ccc(COc3cc(=O)oc4ccccc34)cc2)no[n+]1[O-]	adult S. japonicum	n.e.
N#Cc1c(-c2ccc(OCC(=O)c3ccccc3)cc2)no[n+]1[O-]	adult S. japonicum	n.e.
Cc1ccc(-c2no[n+]([O-])c2CO)cc1	adult S. japonicum	n.e.
N#Cc1c(-c2ccc(OCc3ccccc3)cc2)no[n+]1[O-]	adult S. japonicum	100%D
N#Cc1c(-c2ccc(O)cc2)no[n+]1[O-]	adult S. japonicum	57.1%D
N#Cc1c(-c2ccc(OCCCCBr)cc2)no[n+]1[O-]	adult S. japonicum	44.4%D
